# PROCEDURE_DETAILS: Peptide partition from solution to membrane followed by tryptophan intrinsic fluorescence titration
# Format: physicochemical
# RUN_PARAMETERS: SUVs POPC/POPG 8:2; Trp fluorescence titration (exc. 280 nm, ratio 330/370 nm); 20 mM HEPES, 150 mM NaCl, pH 7.4; 25 °C; S.D. within ±5%
MEASURED_METRIC: partition coefficient KX

Challenge: I have this substance here, Ac-ASAHWGQKALQGAQAVAAAQKLVHAIALMTQ-NH2 [P454 R12K] , and I need its recorded partition coefficient KX.
Response given: 215 000

Challenge: Note, next up: Ac-ASAHWGQEALQGAQAVAAAQELVHAIALMTQ-NH2 [P454 R12E]
Response given: 30 000

Challenge: Note, next up: Ac-ASAHWGQRALQGAQAVAAAQQLVHAIALMTQ-NH2 [P454 R2Q]
Response given: 150 000

Challenge: Note, next up: Ac-ASAHWGQQALQGAQAVAAAQRLVHAIALMTQ-NH2 [P454 R1Q]
Response given: 190 000

Challenge: Note, next up: Ac-ASAHWGQQALQGAQAVAAAQQLVHAIALMTQ-NH2 [P454 R12Q]
Response given: 70 000

Challenge: Note, next up: Ac-ASAHWGQAALQGAQAVAAAQALVHAIALMTQ-NH2 [P454 R12A]
Response given: 275 000

* * *

Let's look at some substances and their measured partition coefficient KX.
# PROCEDURE_DETAILS: Peptide partition from solution to membrane followed by tryptophan intrinsic fluorescence titration
# Assay type: physicochemical
# RUN_PARAMETERS: SUVs DOPC/DOPG 8:2; Trp fluorescence titration (exc. 280 nm, ratio 330/370 nm); 20 mM HEPES, 150 mM NaCl, pH 7.4; 25 °C; S.D. within ±5%

Ac-ASAHWGQKALQGAQAVAAAQKLVHAIALMTQ-NH2 [P454 R12K] : 750 000
Ac-ASAHWGQRALQGAQAVAAAQQLVHAIALMTQ-NH2 [P454 R2Q] : 655 000
Ac-ASAHWGQQALQGAQAVAAAQQLVHAIALMTQ-NH2 [P454 R12Q] : 310 000

Challenge: I have this substance here, Ac-ASAHWGQQALQGAQAVAAAQRLVHAIALMTQ-NH2 [P454 R1Q] , and I need its recorded partition coefficient KX.
Response given: 670 000

Challenge: Note, next up: Ac-ASAHWGQEALQGAQAVAAAQELVHAIALMTQ-NH2 [P454 R12E]
Response given: 70 000

Challenge: Note, next up: Ac-ASAHWGQAALQGAQAVAAAQALVHAIALMTQ-NH2 [P454 R12A]
Response given: 795 000

* * *

# PROCEDURE_DETAILS: Peptide partition from solution to membrane followed by tryptophan intrinsic fluorescence titration
# Format: physicochemical
# RUN_PARAMETERS: SUVs POPC/POPG 8:2; ΔG=−RTln(KX); pH 7.4, 25 °C; S.D. ±0.1 kcal/mol
MEASURED_METRIC: ΔG (free energy of membrane partition) (kcal/mol)
Write the value in kcal/mol as a bare number.

The cases that follow already have their ΔG (free energy of membrane partition) on record.
Ac-ASAHWGQQALQGAQAVAAAQRLVHAIALMTQ-NH2 [P454 R1Q] : -7.2
Ac-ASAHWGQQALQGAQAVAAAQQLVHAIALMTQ-NH2 [P454 R12Q] : -6.6
Ac-ASAHWGQAALQGAQAVAAAQALVHAIALMTQ-NH2 [P454 R12A] : -7.4
Ac-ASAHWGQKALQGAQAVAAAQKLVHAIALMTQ-NH2 [P454 R12K] : -7.3
Ac-ASAHWGQEALQGAQAVAAAQELVHAIALMTQ-NH2 [P454 R12E] : -6.1

Next:
Challenge: I have this substance here, Ac-ASAHWGQRALQGAQAVAAAQQLVHAIALMTQ-NH2 [P454 R2Q] , and I need its recorded ΔG (free energy of membrane partition).
Response given: -7

* * *

# PROCEDURE_DETAILS: Peptide partition from solution to membrane followed by tryptophan intrinsic fluorescence titration
# Type: physicochemical
# RUN_PARAMETERS: SUVs POPC; Trp fluorescence titration (exc. 280 nm, ratio 330/370 nm); 20 mM HEPES, 150 mM NaCl, pH 7.4; 25 °C; S.D. within ±5%
MEASURED_METRIC: partition coefficient KX

Ac-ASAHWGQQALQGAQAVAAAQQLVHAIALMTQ-NH2 [P454 R12Q] : 35 000
Ac-ASAHWGQQALQGAQAVAAAQRLVHAIALMTQ-NH2 [P454 R1Q] : 75 000

Challenge: I have this substance here, Ac-ASAHWGQAALQGAQAVAAAQALVHAIALMTQ-NH2 [P454 R12A] , and I need its recorded partition coefficient KX.
Response given: 195 000

Challenge: Note, next up: Ac-ASAHWGQEALQGAQAVAAAQELVHAIALMTQ-NH2 [P454 R12E]
Response given: 7 000

Challenge: Note, next up: Ac-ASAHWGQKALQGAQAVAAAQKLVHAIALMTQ-NH2 [P454 R12K]
Response given: 60 000

Challenge: Note, next up: Ac-ASAHWGQRALQGAQAVAAAQQLVHAIALMTQ-NH2 [P454 R2Q]
Response given: 90 000

* * *

# PROCEDURE_DETAILS: Peptide partition from solution to membrane followed by tryptophan intrinsic fluorescence titration
# Assay type: physicochemical
# RUN_PARAMETERS: SUVs POPC; ΔG=−RTln(KX); pH 7.4, 25 °C; S.D. ±0.1 kcal/mol
MEASURED_METRIC: ΔG (free energy of membrane partition) (kcal/mol)
Write the value in kcal/mol as a bare number.

The cases that follow already have their ΔG (free energy of membrane partition) on record.
Ac-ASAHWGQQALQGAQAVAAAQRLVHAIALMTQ-NH2 [P454 R1Q] : -6.6
Ac-ASAHWGQAALQGAQAVAAAQALVHAIALMTQ-NH2 [P454 R12A] : -7.2
Ac-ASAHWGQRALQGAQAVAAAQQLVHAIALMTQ-NH2 [P454 R2Q] : -6.7
Ac-ASAHWGQEALQGAQAVAAAQELVHAIALMTQ-NH2 [P454 R12E] : -5.2
Ac-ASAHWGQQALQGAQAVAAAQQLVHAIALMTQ-NH2 [P454 R12Q] : -6.2

Next:
Challenge: I have this substance here, Ac-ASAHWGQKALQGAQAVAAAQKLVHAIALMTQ-NH2 [P454 R12K] , and I need its recorded ΔG (free energy of membrane partition).
Response given: -6.5

* * *

# PROCEDURE_DETAILS: Peptide partition from solution to membrane followed by tryptophan intrinsic fluorescence titration
# Assay type: physicochemical
# RUN_PARAMETERS: SUVs DOPC; Trp fluorescence titration (exc. 280 nm, ratio 330/370 nm); 20 mM HEPES, 150 mM NaCl, pH 7.4; 25 °C; S.D. within ±5%
MEASURED_METRIC: partition coefficient KX

Ac-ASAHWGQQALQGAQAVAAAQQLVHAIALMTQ-NH2 [P454 R12Q] : 195 000
Ac-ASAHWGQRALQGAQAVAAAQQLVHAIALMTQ-NH2 [P454 R2Q] : 260 000
Ac-ASAHWGQEALQGAQAVAAAQELVHAIALMTQ-NH2 [P454 R12E] : 85 000
Ac-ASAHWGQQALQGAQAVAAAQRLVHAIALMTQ-NH2 [P454 R1Q] : 340 000
Ac-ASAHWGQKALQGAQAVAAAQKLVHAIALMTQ-NH2 [P454 R12K] : 265 000

Challenge: I have this substance here, Ac-ASAHWGQAALQGAQAVAAAQALVHAIALMTQ-NH2 [P454 R12A] , and I need its recorded partition coefficient KX.
Response given: 610 000

* * *

# PROCEDURE_DETAILS: Peptide partition from solution to membrane followed by tryptophan intrinsic fluorescence titration
# Assay type: physicochemical
# RUN_PARAMETERS: SUVs DOPC/DOPG 8:2; ΔG=−RTln(KX); pH 7.4, 25 °C; S.D. ±0.1 kcal/mol
MEASURED_METRIC: ΔG (free energy of membrane partition) (kcal/mol)
Write the value in kcal/mol as a bare number.

Ac-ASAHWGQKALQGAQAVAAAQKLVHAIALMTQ-NH2 [P454 R12K] : -8
Ac-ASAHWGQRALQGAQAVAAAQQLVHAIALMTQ-NH2 [P454 R2Q] : -7.9
Ac-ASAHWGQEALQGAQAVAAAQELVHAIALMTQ-NH2 [P454 R12E] : -6.6

Challenge: I have this substance here, Ac-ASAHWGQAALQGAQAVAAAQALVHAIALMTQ-NH2 [P454 R12A] , and I need its recorded ΔG (free energy of membrane partition).
Response given: -8

Challenge: Note, next up: Ac-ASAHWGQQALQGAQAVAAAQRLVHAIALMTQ-NH2 [P454 R1Q]
Response given: -7.9

Challenge: Note, next up: Ac-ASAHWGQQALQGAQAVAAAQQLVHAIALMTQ-NH2 [P454 R12Q]
Response given: -7.5
